# Condition notes: human gut metagenome, 24 h, 2 µM; further: call rule not given here
Metric: Bacterial Biotransformation

For orientation, consider the following solved cases.
Note to self: Bacterial Biotransformation recorded for CC(=O)CC(c1ccccc1)c1c(O)c2ccccc2oc1=O (stereo not given) [WARFARIN] was Compound metabolized

Note to self: Bacterial Biotransformation recorded for Cc1nc2n(c(=O)c1CCN1CCC(c3noc4cc(F)ccc34)CC1)CCCC2O (stereo not given) [PALIPERIDONE] was Compound metabolized

Note to self: Bacterial Biotransformation recorded for COc1ccccc1OCC(O)CN1CCN(CC(=O)Nc2c(C)cccc2C)CC1 (stereo not given) [RANOLAZINE] was Compound NOT metabolized

Note to self: Bacterial Biotransformation recorded for O=C(CCCN1CCC(O)(c2ccc(Cl)cc2)CC1)c1ccc(F)cc1 [HALOPERIDOL] was Compound NOT metabolized

Further cases:
Note to self: Bacterial Biotransformation recorded for CN1CCc2cccc3c2[C@H]1Cc1ccc(O)c(O)c1-3 [APOMORPHINE] was Compound NOT metabolized

Note to self: Bacterial Biotransformation recorded for CS(=O)(=O)O.OC(CCN1CCCCC1)(c1ccccc1)c1ccccc1 [PRIDINOL METHANESULFONATE] was Compound metabolized
